Assay: PSAC antagonists in infected red cells, primary screen, cell-based, P. falciparum Indochina, OD700, 18 h (AID 1157)
Settings: P. falciparum Indochina infected erythrocytes, osmotic lysis OD700, 18 h; higher = more signal, called active from +8 up or from −8 down
READOUT: z-score
Returns: the value as a bare number; no unit string appended.

Query: Which z-score value is on record for `COc1ccc(CCNC(=O)[C@@]2(Sc3ccc(C)cc3)CC(=O)N(C(C)C)[C@@H]2c2ccc(CO)cc2)cc1` ?
Result: 0.549

Query: Please look up its z-score: `O=C1O[C@H](c2ccccc2)[C@H](c2ccccc2)N2[C@H]1[C@@H](C(=O)N1CCN(c3ncccn3)CC1)[C@]1(C(=O)Nc3ccccc31)[C@H]2c1ccc(O)cc1`
Result: 1.01

Query: What z-score value was documented for this molecule, COC(=O)C1=CC(CCCO)=CC(C2CC2)N(Cc2cccc(OC(F)(F)F)c2)C=C1C(=O)OC (centres undefined) ?
Result: 0.526

Query: What value of z-score has been reported for the following molecule? `CC(C)(C)OC(=O)CC[C@]1(C(N)=O)N=C(c2ccc(OCCCO)cc2)O[C@H]1c1ccccc1CN=[N+]=[N-]`
Result: 0.223

----------
Test: binders from COS7 lysate, DM2A8 probe, primary screen, torsin A project, cell lysate, small-molecule microarray, fluorescence 635/667 (AID 1065)
Conditions: higher = more signal, COS7 lysate expressing mutant human TOR1A
Tag: 1 if measured composite z-score is not below 0.1, -1 if it is.

Query: Hello, I need to know if `CCCCC=C[C@@H](NC(=O)c1ccc(C(F)(F)F)cc1)c1ccccc1` has measured composite z-score not below 0.1. Thanks!
Result: -1

Query: # bool: composite z-score of `Cc1ccc(S[C@]2(C(=O)NCC(F)(F)F)CC(=O)N(C3CCCCC3)[C@@H]2c2ccc(CO)cc2)cc1` >= 0.1
Result: 1

Query: Decide: composite z-score of COc1cc(OC)c(C(O)C2C=CC3C(=O)N(c4ccccc4)C(=O)C3N2Nc2ccccc2F)cc1Br (stereo not drawn) >= 0.1?
Result: 1

Query: For this molecule, is measured composite z-score 0.1 or higher? O=C1OCCC=C[C@H]2OC34C=CCN(c5ccc(Cl)cc5)C(=O)[C@H]3N(CCO)C(=O)[C@@H]4C12 (stereo partly drawn)
Result: 1

Query: Tell me whether composite z-score is at least 0.1 here: `CCCC[C@H]1OB(O)C[C@H]2C1=C(COC)C[C@H]1C(=O)C=CC(=O)[C@H]12`
Result: -1

Query: Item `NCCCC[C@@H]1NC(=O)[C@H]2C[C@@H](C(=O)O)[C@@H](c3cccc(OCCO)c3)N2C1=O` with composite z-score of 0.1 or above?
Result: 1

Query: I'd appreciate it if you could say whether `COCCOC(=O)N1C(=O)[C@@]2(c3cc(C#CC4=CCCCC4)ccc31)[C@H](C(=O)N1CCN(c3ncccn3)CC1)[C@H]1C(=O)O[C@H](c3ccccc3)[C@H](c3ccccc3)N1[C@@H]2c1ccccc1OCCO` has composite z-score at least equal to 0.1.
Result: 1

Query: // inclusive: composite z-score at least 0.1? input: CC(C)c1ccc(NN2C(C(O)C(C)C)C=CC3C(=O)N(c4ccccc4)C(=O)C32)cc1 (stereo not drawn)
Result: 1

----------
Experiment: basal S. cerevisiae growth modulation, no modifier, primary screen, OD600, strain BY4716, 24 h, basal condition (AID 1173)
Conditions: OD600, 24 h, higher = more signal, called active from +8 up or from −8 down
READOUT: z-score
Note: the reply should be a number with no unit written.

Query: Value lookup for z-score; key = `C=C(/C(=C/C[C@@H](OC(C)=O)c1ccccc1OCCO)c1cc(C(=O)OC)ccc1OC)C(C)C`
Result: -1.18

Query: Given the compound `NC(=O)[C@@]1(CCS(=O)(=O)c2ccccc2)COC(c2ccc(OCCCO)cc2)=N1` , what is its reported z-score?
Result: 0.511

Query: Quick check: z-score of C=CCC(OC(C)=O)[C@@H]1[C@@H](N(Cc2ccc(-c3ccccc3)cc2)C(=O)c2ccc(-c3ccccc3)cc2)c2cc(OCCCO)ccc2N1C(=O)c1ccc2ccccc2n1 (stereo not given in full) ?
Result: -0.599

Query: Endpoint output: z-score of `CC(C)[C@@H](C(=O)O)n1cc(-c2ccccc2)nn1` . Value?
Result: -0.291

Query: Suppose we examine the compound `O=C1N(CCS(=O)(=O)c2ccccc2)c2ccccc2[C@@H]2OC(c3ccc(OCCCO)cc3)=N[C@]12CCS(=O)(=O)c1ccccc1` ; what z-score value has been reported?
Result: 1.24

----------
Exercise: for every item that follows, state its recorded z-score.
Test: RPMI8226 myeloma cell viability, profiling panel, resazurin fluorescence, basal, 24 h, PK04 Diversity Set (AID 1180);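 note: RPMI8826 multiple myeloma cell line at 5000 cells per well; test concentration not given here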
Details: higher = more signal
Give the figure by itself; no unit, no explanation.

Query: Which z-score value is on record for C=CCC(OC(C)=O)[C@@H]1[C@@H](N(Cc2cc3ccccc3o2)C(=O)Cc2ccc(OC)cc2)c2cc(OCCCO)ccc2N1C(=O)Cc1ccc(OC)cc1 (stereo not given in full) ?
Result: -0.561

Query: Would you kindly share the measured z-score for `CCCCC(=C=CC[C@@H](O)c1cccc(OCCO)c1)CCO` ?
Result: 1.37

Query: Which z-score value belongs to `[N-]=[N+]=NCc1ccccc1C[C@@]1(C(=O)O)N=C(c2ccc(OCCCO)cc2)O[C@@H]1c1ccccc1CN=[N+]=[N-]` ?
Result: 1.03

Query: Param item = O=C1OCCC=C[C@H]2OC34C=CCN(CCN5CCOCC5)C(=O)[C@H]3N(CCCO)C(=O)[C@@H]4C12 (stereo not given in full) ; retrieve measured z-score.
Result: -0.62

Query: Looking for the measured z-score of `COCCOC(=O)N1C(=O)[C@@]2(c3cc(C#CCC(C(=O)OC)C(=O)OC)ccc31)[C@H](C(N)=O)[C@H]1C(=O)O[C@H](c3ccccc3)[C@H](c3ccccc3)N1[C@@H]2c1ccc(OCCO)cc1` , can you help?
Result: -1.81

Query: Which z-score reading was recorded for the compound C=CCC(OC(C)=O)[C@@H]1[C@@H](N(Cc2ccc(-c3ccccc3)cc2)C(=O)c2cccc3ccccc23)c2cc(OCCCO)ccc2N1C(=O)c1ccc2ccccc2c1 (stereo not given in full) ?
Result: -1.3

Query: Endpoint output: z-score of `C=C(COC)/C(=C/C[C@@H](OC(C)=O)c1ccccc1OCCO)c1cc(C(=O)OC)ccc1OC` . Value?
Result: -0.316

Query: Suppose we examine the compound `CCOC(=O)C1=C[C@@H](C(C)(C)C)N(S(=O)(=O)c2ccc(C)cc2)[C@H]1c1ccccc1Cl` ; what z-score value has been reported?
Result: -1.74

Query: Which z-score value belongs to `C=CC[C@]1(C(=O)NCc2ccccc2)COC(c2ccc(OCCCO)cc2)=N1` ?
Result: -0.874

Query: What does the record list as z-score for `COC(=O)[C@@]1(Cc2ccccc2CN=[N+]=[N-])COC(c2ccc(OCCCO)cc2)=N1` ?
Result: -0.39

Query: # get_value(readout='z-score', item= `C=C(/C(=C/C[C@H](OC(=O)c1ccncc1)c1ccccc1OCCO)c1cc(C(=O)OC)ccc1OC)C(C)C` )
Result: 0.956

Query: // lookup z-score for `CCOC(=O)C[C@H]1[C@H](OC(=O)c2cc3ccccc3oc2=O)[C@@H](NC(=O)C2CCCCC2)c2cc(OCCCO)ccc2N1C(=O)Cc1ccc(OC)cc1`
Result: -0.986

Query: Given `COCCCNC(=O)[C@@]1(Sc2ccc(C)cc2)CC(=O)N(C2CCCCC2)[C@@H]1c1ccc(CO)cc1I` , state its recorded z-score.
Result: -1.66

Query: State the recorded z-score for this entry: `COC(=O)c1ccc([C@H](NC(=O)c2ccccc2)[C@]2(C)C[C@H]2C2CCCCC2)cc1`
Result: 0.293

Query: Quick one: z-score of `CC(C)CNC(=O)[C@@H]1c2ccccc2C(=O)N(C2Cc3ccccc3C2)[C@H]1c1ccc(CO)cc1` ?
Result: 1.4

----------
Target: Dickkopf-related protein 1 (Homo sapiens) (UniProt O94907)
Sequence (O94907 whole entry, looked up): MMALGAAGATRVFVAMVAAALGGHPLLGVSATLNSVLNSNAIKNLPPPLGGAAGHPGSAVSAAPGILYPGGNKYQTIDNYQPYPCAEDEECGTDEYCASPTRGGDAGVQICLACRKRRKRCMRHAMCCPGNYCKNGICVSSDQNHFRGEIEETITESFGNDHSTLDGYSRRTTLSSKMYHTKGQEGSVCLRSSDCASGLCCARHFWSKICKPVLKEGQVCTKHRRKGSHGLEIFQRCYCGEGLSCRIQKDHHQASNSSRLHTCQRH
Assay: DKK1 binders on small-molecule microarrays, primary screen, biochemical, small-molecule microarray, 635 nm fluorescence scan (AID 1106);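 note: score merges emission near 667 nm with signal to noise over three replicate slides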
Details: DKK1 binding, higher = more signal
// bucketize composite z-score: low bin = under 0.002, mid bin = from 0.002 up to 0.3, high bin = 0.3 and over

Query: In plain terms, what class is O=C1C2C=CC(C(O)C(c3ccccc3)c3ccccc3)N(Nc3ccccc3)C2C(=O)N1c1ccccc1 (stereo not given) ?
Result: low bin

Query: Record `CCOC(=O)C[C@H]1[C@H](OC(=O)c2ccc(-c3ccccc3)cc2)[C@@H](NC(=O)CC(C)C)c2cc(OCCCO)ccc2N1C(=O)Cc1ccc(OC)cc1` — which class?
Result: low bin

Query: # bin lookup: classify C=CCC(OC(C)=O)[C@@H]1[C@@H](N(Cc2ccc(-c3cccc(C(F)(F)F)c3)o2)C(=O)c2cccc3ccccc23)c2cc(OCCCO)ccc2N1C(=O)c1ccc2ccccc2n1 (stereo not given in full) by its composite z-score
Result: mid bin

Query: // return the class label for C=CCC(OC(C)=O)[C@@H]1[C@@H](N(Cc2cc3ccccc3o2)C(=O)Cc2ccc(OC)cc2)c2cc(OCCCO)ccc2N1C(=O)Cc1ccc2ccccc2c1 (stereo not given in full)
Result: low bin

Query: Determine which band this compound sits in: CC(C)C[C@H]1NC(=O)[C@H](Cc2ccccc2)NC(=O)[C@@]23C(=O)N[C@@H](Cc4ccccc4)C2[C@H](C)[C@@]2(C)O[C@H]2C3/C=C/C/C=C\CNC1=O (stereo not given in full)
Result: high bin

Query: Class label required: `CC(C)CNC(=O)[C@@]1(C)c2ccccc2C(=O)N(Cc2cc(F)cc(C(F)(F)F)c2)[C@H]1c1ccc(CO)cc1`
Result: high bin

Query: Which class is correct for the following compound? `NC(=O)NCC#Cc1ccc2c(c1)[C@]1(C(=O)N2)[C@H](C(=O)N2CCCCCCC2)[C@H]2C(=O)O[C@H](c3ccccc3)[C@H](c3ccccc3)N2[C@@H]1c1ccc(O)cc1`
Result: high bin

Query: Bin this entry: `COc1ccc(CCNC(=O)[C@@]2(C)c3ccccc3C(=O)N(Cc3cc(C(F)(F)F)cc(C(F)(F)F)c3)[C@H]2c2ccc(CO)cc2)cc1`
Result: high bin

Query: Band for the recorded composite z-score of C=CCC(OC(C)=O)[C@@H]1[C@@H](N(Cc2cc3ccccc3o2)C(=O)c2cccc3ccccc23)c2cc(OCCCO)ccc2N1C(=O)c1ccc2ccccc2c1 (stereo not given in full) ?
Result: mid bin

Query: Band for `CC(C)C[C@@H]1NC(=O)[C@H]2C[C@@H](C(=O)NCCCCCNC(=O)CS)[C@@H](c3ccc(O)cc3)N2C1=O` ?
Result: high bin
